Just for reference, ChEMBL document CHEMBL1130029 is where these values come from.

The reader will find reported bioavailability values listed item by item below.
# Procedure Details: Oral bioavailability in Rhesus monkey (dose 16 mg/kg)
# Format: ADME, organism-based, Macaca mulatta
# Condition Context: in vivo
Provide only the numeric value, understood in %.

# input Looking for the measured bioavailability of "C#C/C=C(\c1ccc(OCC)cc1)c1ccc2nc(N)n(S(=O)(=O)C(C)C)c2c1" , can you help?
# output 4

# input Looking for the measured bioavailability of "C#C/C=C(\c1ccc(F)cc1)c1ccc2nc(N)n(S(=O)(=O)C(C)C)c2c1" , can you help?
# output 23

# input Looking for the measured bioavailability of "C#C/C=C(\c1ccc(OC)cc1)c1ccc2nc(N)n(S(=O)(=O)C(C)C)c2c1" , can you help?
# output 5

# input Looking for the measured bioavailability of C#C/C=C(\c1ccc([S+](C)[O-])cc1)c1ccc2nc(N)n(S(=O)(=O)C(C)C)c2c1 (stereo unspecified) , can you help?
# output 3

# input Looking for the measured bioavailability of "C#C/C=C(\c1ccc(SC)cc1)c1ccc2nc(N)n(S(=O)(=O)C(C)C)c2c1" , can you help?
# output 5

# input Looking for the measured bioavailability of "C#C/C=C(\c1ccccc1)c1ccc2nc(N)n(S(=O)(=O)C(C)C)c2c1" , can you help?
# output 9
